Data provenance: ChEMBL document CHEMBL4007467

target: UniProtKB P08684; experiment: Inhibition of CYP3A4 in human liver microsomes assessed as enzyme-mediated metabolite formation at 1 uM using midazolam as substrate incubated for 5 mins followed by NADPH addition measured after 30 mins by LC-MS/MS analysis relative to control; format: ADME; parameters: scale not given: the % may be the effect or the level left; settings: probe midazolam, read-out: Activity
Sequence (P08684 whole entry): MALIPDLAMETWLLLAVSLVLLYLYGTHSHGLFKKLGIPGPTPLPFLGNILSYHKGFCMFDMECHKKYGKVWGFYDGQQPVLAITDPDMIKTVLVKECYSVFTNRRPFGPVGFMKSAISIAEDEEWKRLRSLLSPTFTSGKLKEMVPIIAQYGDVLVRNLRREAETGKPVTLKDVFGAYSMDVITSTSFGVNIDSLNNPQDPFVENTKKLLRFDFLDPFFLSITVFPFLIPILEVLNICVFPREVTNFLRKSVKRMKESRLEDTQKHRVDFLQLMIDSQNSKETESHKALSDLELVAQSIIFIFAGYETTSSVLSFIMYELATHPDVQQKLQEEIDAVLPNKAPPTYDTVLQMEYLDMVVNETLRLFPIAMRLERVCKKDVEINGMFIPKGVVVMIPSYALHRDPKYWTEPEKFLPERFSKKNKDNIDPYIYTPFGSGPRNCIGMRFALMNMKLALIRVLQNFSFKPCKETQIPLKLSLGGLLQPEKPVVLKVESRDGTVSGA
outcome-measure: activity at 0.5 h, 1 µM (%)
Give just the numeric value; % need not be written.

# lookup: activity at 0.5 h, 1 µM of "CCCCCCCC(=O)CCc1ccc(O)c(OC)c1" 88.5

###

Molecular target: CYP1A2 (Homo sapiens, UniProt P05177)
Sequence (P05177 whole entry): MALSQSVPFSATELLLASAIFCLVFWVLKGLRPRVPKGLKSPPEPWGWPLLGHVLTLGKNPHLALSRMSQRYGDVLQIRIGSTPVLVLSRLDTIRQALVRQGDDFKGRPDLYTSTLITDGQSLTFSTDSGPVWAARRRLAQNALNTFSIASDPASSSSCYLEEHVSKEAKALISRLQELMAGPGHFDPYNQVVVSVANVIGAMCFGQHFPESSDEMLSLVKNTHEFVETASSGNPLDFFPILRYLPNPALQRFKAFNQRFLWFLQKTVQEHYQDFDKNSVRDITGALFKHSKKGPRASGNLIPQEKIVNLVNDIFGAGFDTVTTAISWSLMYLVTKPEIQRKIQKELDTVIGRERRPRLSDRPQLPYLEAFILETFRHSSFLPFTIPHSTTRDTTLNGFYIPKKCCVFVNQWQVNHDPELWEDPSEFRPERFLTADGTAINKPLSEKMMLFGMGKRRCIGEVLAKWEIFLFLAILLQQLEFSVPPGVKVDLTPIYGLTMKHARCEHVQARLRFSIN
Assay: Inhibition of CYP1A2 in human liver microsomes assessed as enzyme-mediated metabolite formation at 10 uM using phenacetin as substrate incubated for 5 mins followed by NADPH addition measured after 30 mins by LC-MS/MS analysis relative to control
Format: ADME
Set-up: scale not given: the % may be the effect or the level left
Settings: probe phenacetin, read-out: Activity
outcome-measure: activity at 0.5 h, 10 µM (%)
Give the value in % but do not write % after it.

Which activity at 0.5 h, 10 µM reading was recorded for the molecule "CCCCCCCC(=O)CCc1ccc(O)c(OC)c1" ? 49.7
